Recorded values, source ChEMBL document CHEMBL6120986.

Experiment: Binding affinity in goat brain tubulin assessed as equilibrium dissociation constant incubated for 45 mins by fluorescence titration method
Parameters: species or system Capra hircus
Quantity name: Kd (µM)
API: value field is a number in µM; no unit string.

**Query** What Kd value was documented for this molecule, "COc1ccc2c(c1OC)C(=O)O[C@@H]2[C@H]1c2c(c(NC(=O)Nc3ccc(Cl)cc3Cl)c3c(c2OC)OCO3)CCN1C" ?
**Result** 42
